Target: HIV Env of isolate Q259.d2.17 (clade A) (HIV)
Assay: cell-based or functional assay
PARAMETER: IC50 (µg/ml) with constrains (µg/mL)

binder="ePGDM5 (antibody, V domains shown) VH: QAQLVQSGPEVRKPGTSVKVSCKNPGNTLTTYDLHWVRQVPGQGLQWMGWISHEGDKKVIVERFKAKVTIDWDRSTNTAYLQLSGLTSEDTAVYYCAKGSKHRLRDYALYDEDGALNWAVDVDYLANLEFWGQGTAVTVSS VL: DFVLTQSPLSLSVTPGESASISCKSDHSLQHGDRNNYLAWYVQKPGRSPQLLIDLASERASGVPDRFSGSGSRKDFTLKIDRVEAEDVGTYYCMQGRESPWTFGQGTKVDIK" parameter="IC50 (µg/ml) with constrains" experimental_result=0.013
binder="ePGDM9 (antibody, V domains shown) VH: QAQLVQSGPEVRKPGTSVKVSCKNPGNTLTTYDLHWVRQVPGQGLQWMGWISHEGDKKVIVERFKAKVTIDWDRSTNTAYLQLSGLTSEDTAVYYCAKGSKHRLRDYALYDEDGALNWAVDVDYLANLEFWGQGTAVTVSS VL: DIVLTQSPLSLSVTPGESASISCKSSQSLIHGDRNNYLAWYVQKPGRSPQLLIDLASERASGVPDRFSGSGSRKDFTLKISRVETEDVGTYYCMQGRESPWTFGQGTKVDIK" parameter="IC50 (µg/ml) with constrains" experimental_result=0.012
binder="PGDM1400 (antibody, V domains shown) VH: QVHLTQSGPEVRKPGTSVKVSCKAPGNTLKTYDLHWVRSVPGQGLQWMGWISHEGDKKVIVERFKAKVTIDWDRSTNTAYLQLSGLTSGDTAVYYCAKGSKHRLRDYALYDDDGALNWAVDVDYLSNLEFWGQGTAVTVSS VL: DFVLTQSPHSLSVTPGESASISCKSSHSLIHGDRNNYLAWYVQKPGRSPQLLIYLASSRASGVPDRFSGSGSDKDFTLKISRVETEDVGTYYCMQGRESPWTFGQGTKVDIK" parameter="IC50 (µg/ml) with constrains" experimental_result=0.068
binder="ePGDM13 (antibody, V domains shown) VH: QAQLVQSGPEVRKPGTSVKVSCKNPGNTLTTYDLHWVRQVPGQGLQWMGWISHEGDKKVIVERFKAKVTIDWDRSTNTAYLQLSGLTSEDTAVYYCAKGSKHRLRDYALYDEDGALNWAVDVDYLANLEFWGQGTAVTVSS VL: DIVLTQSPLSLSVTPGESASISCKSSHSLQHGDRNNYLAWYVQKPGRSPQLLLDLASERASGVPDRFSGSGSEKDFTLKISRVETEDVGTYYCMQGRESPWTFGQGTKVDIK" parameter="IC50 (µg/ml) with constrains" experimental_result=0.037
